Just for reference, patent US6426355B1 is where these values come from.

Test system: VZV strain Ellen
Assay: VZV Antiviral (ELISA) assay
Type: cell-based
Conditions: VZV strain Ellen in HFF cells
Reported IC50 (ug/ml) VZV values for a set of compounds

O=C(Nc1ccc(NC(=S)NCc2cc(C(F)(F)F)cc(C(F)(F)F)c2)cc1)c1csnn1    >10 µg/mL
O=C(Nc1ccc(NC(=S)Nc2ccc(NC(=O)c3ccccc3F)cc2)cc1Cl)OCCN1CCCCC1    1.5 µg/mL
CC(NC(=S)Nc1ccc(NC(=O)c2cscn2)cc1)c1cc(C(F)(F)F)ccc1F (centres unmarked)    >7.5 µg/mL
COc1cc(OC)c(NC(=S)Nc2ccc(NC(=O)c3csnn3)cc2)cc1Cl    >10 µg/mL
O=C(Nc1ccc(NC(=S)NCc2cc(C(F)(F)F)cc(C(F)(F)F)c2)cc1)c1c[nH]cn1    >7.5 µg/mL
O=C(Nc1ccc(NC(=S)Nc2ccc3[nH]nnc3c2)cc1)c1ccco1    2.5 µg/mL
Nc1cc(Cl)cc(NC(=S)Nc2ccc(NC(=O)c3ccco3)cc2)c1    0.9 µg/mL

--- query ---
Which IC50 (ug/ml) VZV is listed for COc1cc(OC)c(NC(=S)Nc2ccc(NC(=O)c3ccc4ccccc4n3)cc2)cc1Cl ?
>10 µg/mL

====

Tested on: VZV strain Ellen
Test: VZV Antiviral (ELISA) assay
Type: cell-based
Settings: VZV strain Ellen in HFF cells
QUANTITY_KIND: IC50 (ug/ml) VZV

CC(C)CN(C)c1cc(NC(=S)Nc2ccc(NC(=O)c3csnn3)cc2)cc(C(F)(F)F)c1 [Example 594]    >10 µg/mL
CC(NC(=S)Nc1ccc(NC(=O)c2cscn2)cc1)c1ccc(Cl)cc1F (centres unmarked) [Example 851]    1.43 µg/mL
CN1CCC(N(C)c2ccc(NC(=S)Nc3ccc(NC(=O)c4ccco4)cc3)cc2Cl)CC1 [Example 344]    7 µg/mL
CN(c1ccc(NC(=S)Nc2ccc(NC(=O)c3csnn3)cc2)cc1Cl)C1CCCCC1 [Example 237]    >10 µg/mL

I'd like to know its IC50 (ug/ml) VZV. The molecule in question is C[C@@H](NC(=S)Nc1ccc(NC(=O)c2csnn2)cc1)c1ccc(Cl)cc1 [Example 821]
>7.5 µg/mL

Can you look up the measured IC50 (ug/ml) VZV of COc1cccc(CCNC(=S)Nc2ccc(NC(=O)c3csnn3)cc2)c1 [Example 637] for me?
>10 µg/mL

# IC50 (ug/ml) VZV lookup, item O=C(Nc1ccc(NC(=S)NCCOc2ccccc2)cc1)c1csnn1 [Example 627]
>10 µg/mL

Name the reported IC50 (ug/ml) VZV value associated with the molecule CCC(C)Cc1cc(NC(=S)Nc2ccc(NC(=O)c3csnn3)cc2)cc(C(F)(F)F)c1 (centres unmarked) [Example 556]
>7.5 µg/mL

Look up IC50 (ug/ml) VZV: O=C(Nc1ccc(NC(=S)Nc2ccc(NC(=O)c3ccco3)cc2)cc1Cl)c1ccccc1 [Example 403]
>15 µg/mL

Would you kindly share the measured IC50 (ug/ml) VZV for O=C(Nc1ccc(NC(=S)Nc2cc(C(F)(F)F)cc(C(F)(F)F)c2)cc1)c1ccco1 [Example 516] ?
>10 µg/mL

Look at this molecule and give its reported IC50 (ug/ml) VZV. CN(C)c1ccc(NC(=S)Nc2ccc(NC(=O)c3ccco3)cc2)cc1Cl [Example 330]
>10 µg/mL

Item CC(C)c1cccc(NC(=S)Nc2ccc(NC(=O)c3ccco3)cc2)c1 [Example 451] has what recorded IC50 (ug/ml) VZV?
>10 µg/mL

Quick one: IC50 (ug/ml) VZV of O=C(Nc1ccc(NC(=S)NCc2ccc(Cl)c(Cl)c2)cc1)c1csnn1 [Example 537] ?
10 µg/mL

Need IC50 (ug/ml) VZV, item O=C(Nc1ccc(NC(=S)Nc2cc(N3CCCC3)cc(C(F)(F)F)c2)cc1)c1csnn1 [Example 560]
>10 µg/mL

Can you look up the measured IC50 (ug/ml) VZV of CC(=O)Nc1cc(Cl)cc(NC(=S)Nc2ccc(NC(=O)c3csnn3)cc2)c1 [Example 644] for me?
8 µg/mL

What value of IC50 (ug/ml) VZV has been recorded for this entry: CC(=O)Nc1cccc(NC(=S)Nc2ccc(NC(=O)c3ccco3)cc2)c1 [Example 462]
>10 µg/mL

Looking for the measured IC50 (ug/ml) VZV of COc1cccc(NC(=S)Nc2ccc(NC(=O)c3ccco3)cc2)c1 [Example 473] , can you help?
>10 µg/mL
